# Test system: MDA-MB-231
# method summary: Cytotoxicity against human MDA-MB-231 cells assessed as reduction in cell growth incubated for 48 hrs by MTT assay
# Assay type: functional, cell-based
# reported conditions: MDA-MB-231, 48 h
endpoint label: pIC50
pIC50 is defined as minus the log10 of a concentration measured in mol/L.

{"columns": ["compound", "measured"],
 "data": [
  ["C[C@@H]1CC[C@@]2(OC1)O[C@H]1C[C@H]3[C@@H]4CC=C5C[C@@H](O[C@@H]6O[C@H](CO)[C@@H](O[C@@H]7O[C@H](CO)[C@@H](O)[C@H](O)[C@H]7O)[C@H](O)[C@H]6O[C@@H]6O[C@@H](C)[C@H](O)[C@@H](O)[C@H]6O)CC[C@]5(C)[C@H]4CC[C@]3(C)[C@H]1[C@@H]2C [DELTONIN]", 5.96]
]}

# return pIC50 for C[C@@H]1CC[C@@]2(OC1)O[C@H]1C[C@H]3[C@@H]4CC=C5C[C@@H](O[C@@H]6O[C@H](CO)[C@@H](O)[C@H](O)[C@H]6O[C@@H]6O[C@@H](C)[C@H](O)[C@@H](O)[C@H]6O)CC[C@]5(C)[C@H]4CC[C@]3(C)[C@H]1[C@@H]2C [OPHIOPOGONIN C] , test system: MDA-MB-231
5.46

---

# System: U-937
# method summary: Antiproliferative activity against human U-937 cells assessed as inhibition of cell growth incubated for 72 hrs by cell-titer glo assay
# Assay type: functional, cell-based
# reported conditions: U-937, 72 h
Listed here are compounds together with their documented pIC50.
Remember, pIC50 is on a log scale: it is -log10 of the molar concentration.

{"columns": ["compound", "system tested", "pIC50"],
 "data": [
  ["COc1ccc(-c2cn(C3C[C@H]4[C@@H]5C[C@@H]6O[C@]7(CC[C@@H](C)CO7)[C@@H](C)[C@@H]6[C@@]5(C)CC[C@@H]4[C@@]4(C)CC[C@H](O)CC34O)nn2)cc1 (some centres not stated)", "U-937", 5.27]
]}

Next item in the queue.
Look up and report measured pIC50 for this entry: C[C@@H]1CC[C@@]2(OC1)O[C@H]1C[C@H]3[C@@H]4CC(n5cc(-c6ccccc6)nn5)C5(O)C[C@@H](O)CC[C@]5(C)[C@H]4CC[C@]3(C)[C@H]1[C@@H]2C (some centres not stated)
5.09

---

# System: DLD-1
# method summary: Cytotoxicity against human DLD-1 cells assessed as reduction in cell growth incubated for 48 hrs by SRB assay
# Format: functional, cell-based
# reported conditions: DLD-1, 48 h
endpoint label: pIC50
In simple prose, pIC50 is minus the logarithm base ten of a concentration in moles per litre.

Indicate its recorded pIC50; the compound in question is C[C@H]1CO[C@@]2(O[C@H]3C[C@H]4[C@@H]5/C(=N/CCCCCCC(=O)O)C=C6C[C@@H](O)CC[C@]6(C)[C@H]5CC[C@]4(C)[C@H]3[C@@H]2C)/C(=N/O)C1
4.80

---

# Tested on: DU-145
# method summary: Cytotoxicity against human DU-145 cells
# Type: functional, cell-based
endpoint label: pIC50
Lab note: report pIC50 as minus log10 of the concentration in molar units, number only.

{"columns": ["compound", "pIC50"],
 "data": [
  ["C[C@@H]1CC[C@@]2(OC1)O[C@H]1C[C@H]3[C@@H]4CC(n5cc(-c6ccc(F)cc6)nn5)C5(O)C[C@@H](O)CC[C@]5(C)[C@H]4CC[C@]3(C)[C@H]1[C@@H]2C (stereo not given in full)", 5.00]
]}

Note pIC50 for the compound shown: COc1cccc(COc2ccc(-c3cn(C4C[C@H]5[C@@H]6C[C@@H]7O[C@]8(CC[C@@H](C)CO8)[C@@H](C)[C@@H]7[C@@]6(C)CC[C@@H]5[C@@]5(C)CC[C@H](O)CC45O)nn3)cc2)c1 (stereo not given in full)
4.98

Consider the compound COc1ccc(-c2cn(C3C[C@H]4[C@@H]5C[C@@H]6O[C@]7(CC[C@@H](C)CO7)[C@@H](C)[C@@H]6[C@@]5(C)CC[C@@H]4[C@@]4(C)CC[C@H](O)CC34O)nn2)cc1 (stereo not given in full) and give its recorded pIC50.
4.70

Provide measured pIC50 value, entry: CC(=O)O[C@@H]1C=C2/C(=N/O)C[C@H]3[C@@H]4C[C@@H]5OC(=O)[C@@H](C)[C@@H]5[C@@]4(C)CC[C@@H]3[C@@]2(C)CC1
5.11

Identify measured pIC50 associated with C[C@@H]1CC[C@@]2(OC1)O[C@H]1C[C@H]3[C@@H]4CC(n5cc(-c6ccccc6)nn5)C5(O)C[C@@H](O)CC[C@]5(C)[C@H]4CC[C@]3(C)[C@H]1[C@@H]2C (stereo not given in full)
5.10

---

# Tested on: Ca-Ski
# method summary: Antiproliferative activity against human Ca-Ski cells assessed as reduction in cell growth after 48 hrs by MTT assay
# Format: functional, cell-based
endpoint label: IC50 (µM)
Give just the numeric value; µM need not be written.

Solved cases (3 shown):
{"columns": ["compound", "result unit", "IC50"],
 "data": [
  ["C[C@@H]1CC[C@@]2(OC1)O[C@H]1C[C@H]3[C@@H]4CC=C5C[C@@H](O[C@@H]6O[C@H](CO)[C@@H](O[C@@H]7O[C@@H](C)[C@H](O)[C@@H](O)[C@H]7O)[C@H](O)[C@H]6O)CC[C@]5(C)[C@H]4CC[C@]3(C)[C@H]1[C@@H]2C", "µM", 80],
  ["C[C@@H]1CC[C@@]2(OC1)O[C@H]1C[C@H]3[C@@H]4CC=C5C[C@@H](O[C@@H]6O[C@H](CO)[C@@H](O[C@@H]7O[C@@H](C)[C@H](O)[C@@H](O)[C@H]7O)[C@H](O)[C@H]6O[C@@H]6O[C@@H](C)[C@H](O)[C@@H](O)[C@H]6O)CC[C@]5(C)[C@H]4CC[C@]3(C)[C@H]1[C@@H]2C", "µM", 2],
  ["C[C@@H]1CC[C@@]2(OC1)O[C@H]1C[C@H]3[C@@H]4CC=C5C[C@@H](O[C@@H]6O[C@H](CO)[C@@H](O)[C@H](O)[C@H]6O)CC[C@]5(C)[C@H]4CC[C@]3(C)[C@H]1[C@@H]2C [DISOGLUSIDE]", "µM", 41]
]}

Output IC50 of C[C@@H]1CC[C@@]2(OC1)O[C@H]1C[C@H]3[C@@H]4CC=C5C[C@@H](O)CC[C@]5(C)[C@H]4CC[C@]3(C)[C@H]1[C@@H]2C
80

---

# System: HeLa
# method summary: Antiproliferative activity against human HeLa cells assessed as reduction in cell growth
# Format: functional, cell-based
endpoint label: pIC50
When answering, recall that pIC50 equals minus log10 of the concentration in mol/L, and write that number alone.

Give pIC50; test system HeLa; molecule Cc1ccc2c(n1)C(=O)C(Cl)C(O[C@H]1CC[C@@]3(C)C(=CC[C@H]4[C@@H]5C[C@@H]6O[C@]7(CC[C@@H](C)CO7)[C@@H](C)[C@@H]6[C@@]5(C)CC[C@@H]43)C1)C2=O (stereo partly specified)
4.80

---

Listing of entries alongside the reported pIC50.
# Test system: MDA-MB-231
# method summary: Cytotoxicity against human MDA-MB-231 cells assessed as reduction in cell growth incubated for 48 hrs by MTT assay
# Format: functional, cell-based
# reported conditions: MDA-MB-231, 48 h
# pIC50 is unitless: minus log10 of the molar concentration; print number only

Illustrative cases are given below, each with its answer.
{"columns": ["molecule", "system tested", "pIC50"],
 "data": [
  ["C[C@@H]1CC[C@@]2(OC1)O[C@H]1C[C@H]3[C@@H]4CC=C5C[C@@H](O[C@@H]6O[C@H](CO)[C@@H](O[C@@H]7O[C@@H](C)[C@H](O[C@@H]8O[C@@H](C)[C@H](O)[C@@H](O)[C@H]8O)[C@@H](O)[C@H]7O)[C@H](O)[C@H]6O[C@@H]6O[C@@H](C)[C@H](O)[C@@H](O)[C@H]6O)CC[C@]5(C)[C@H]4CC[C@]3(C)[C@H]1[C@@H]2C [PENNOGENIN RAHAMNOSYL CHACOTRIOSIDE]", "MDA-MB-231", 5.51],
  ["C[C@@H]1CC[C@@]2(OC1)O[C@H]1C[C@H]3[C@@H]4CC=C5C[C@@H](O[C@@H]6O[C@H](CO)[C@@H](O[C@@H]7O[C@@H](C)[C@H](O)[C@@H](O)[C@H]7O)[C@H](O)[C@H]6O[C@@H]6O[C@@H](C)[C@H](O)[C@@H](O)[C@H]6O)CC[C@]5(C)[C@H]4CC[C@]3(C)[C@H]1[C@@H]2C", "MDA-MB-231", 5.77]
]}

Consider the additional molecule presented here.
Return reported pIC50. Input molecule: C[C@@H]1CC[C@@]2(OC1)O[C@H]1C[C@H]3[C@@H]4CC=C5C[C@@H](O[C@@H]6O[C@H](CO)[C@@H](O[C@@H]7O[C@H](CO)[C@@H](O[C@@H]8O[C@@H](C)[C@H](O)[C@@H](O)[C@H]8O)[C@H](O)[C@H]7O)[C@H](O)[C@H]6O[C@@H]6O[C@@H](C)[C@H](O)[C@@H](O)[C@H]6O)CC[C@]5(C)[C@H]4CC[C@]3(C)[C@H]1[C@@H]2C
6.05
